Catalogue of compounds with associated nH
# Measured target: D(2) dopamine receptor (Homo sapiens)
# Sequence (P14416 whole entry): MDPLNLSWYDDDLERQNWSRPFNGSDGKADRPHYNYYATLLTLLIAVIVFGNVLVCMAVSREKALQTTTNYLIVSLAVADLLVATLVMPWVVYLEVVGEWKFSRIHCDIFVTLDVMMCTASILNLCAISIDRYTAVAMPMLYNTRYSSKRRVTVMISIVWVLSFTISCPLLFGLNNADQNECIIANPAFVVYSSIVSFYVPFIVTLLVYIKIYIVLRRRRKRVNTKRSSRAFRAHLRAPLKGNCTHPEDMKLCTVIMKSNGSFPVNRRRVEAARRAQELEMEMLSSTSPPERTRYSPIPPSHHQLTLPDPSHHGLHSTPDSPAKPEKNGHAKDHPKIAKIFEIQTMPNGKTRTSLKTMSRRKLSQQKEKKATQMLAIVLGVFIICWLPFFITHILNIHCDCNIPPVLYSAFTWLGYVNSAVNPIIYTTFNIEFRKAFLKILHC
// no unit string in output, number only

These solved cases illustrate the format of a correct answer.
COc1cccc2c1CC[C@@H](NCc1ccccc1)C2 :: 0.83
CCCN(Cc1ccccc1)[C@@H]1CCc2c(F)cccc2C1 :: 0.86
CCCN(Cc1ccco1)[C@@H]1CCc2c(cccc2OC)C1 :: 0.83

Task item: Can you share its nH? I mean this compound: `CCCN(CCC)[C@@H]1CCc2c(cccc2OC)C1`
Reply: 1.06

Task item: Entry `CCCN(Cc1ccccc1)[C@@H]1CCc2c(cccc2OC)C1` has what nH?
Reply: 1.05

Task item: Given `CCCN[C@@H]1CCc2c(cccc2OC)C1` , state its recorded nH.
Reply: 1.06

Task item: What value of nH has been reported for the following compound? `CCCN(Cc1ccc(F)cc1)[C@@H]1CCc2c(cccc2OC)C1`
Reply: 0.9

Task item: Given the compound `CCCN(Cc1cccs1)[C@@H]1CCc2c(cccc2OC)C1` , what is its reported nH?
Reply: 0.9

Task item: Can you look up the measured nH of `CCCN(CCC)[C@@H]1CCc2c(F)cccc2C1` for me?
Reply: 0.89

Task item: Can you look up the measured nH of `CCCN(Cc1ccc([N+](=O)[O-])cc1)[C@@H]1CCc2c(cccc2OC)C1` for me?
Reply: 0.9

Task item: So what does the record say about nH for `NCCc1ccc(O)c(O)c1` ?
Reply: 0.65

Task item: Please give the measured nH for this compound: `CCCN(Cc1ccc(OC)cc1)[C@@H]1CCc2c(cccc2OC)C1`
Reply: 0.94
